All figures here come from patent US20230029453A1.

target: T1, HLA-B*27:05 (human, biotinylated heavy chain); assay: UV peptide exchange; HLA class I ELISA
T1 construct: Conditional HLA class I complex as for m1
Exch II (%) values by entry

binder: LIAMDSAIT [Peptide 10, 9-mer LIAMDSAIT derived from P22 (SEQ ID NO: 1003)]
Exch II (%): 6.1
--
binder: IAMDSAITL [Peptide 2, 9-mer IAMDSAITL derived from FUS1 (SEQ ID NO: 1001)]
Exch II (%): 8.5
--
binder: KQLIAMDSA [Peptide 9, 9-mer KQLIAMDSA derived from P22 (SEQ ID NO: 1003)]
Exch II (%): 9.8
--
binder: AMDSAITLW [Peptide 1, 9-mer AMDSAITLW derived from FUS1 (SEQ ID NO: 1001)]
Exch II (%): 9.3
--
binder: LYHREKQLI [Peptide 5, 9-mer LYHREKQLI derived from P22 (SEQ ID NO: 1003)]
Exch II (%): 15.4
--
binder: HREKQLIAM [Peptide 7, 9-mer HREKQLIAM derived from P22 (SEQ ID NO: 1003)]
Exch II (%): 29.5
--
binder: YHREKQLIA [Peptide 6, 9-mer YHREKQLIA derived from P22 (SEQ ID NO: 1003)]
Exch II (%): 11.7
--
binder: SLYHREKQL [Peptide 4, 9-mer SLYHREKQL derived from P22 (SEQ ID NO: 1003)]
Exch II (%): 14
--
binder: SLIAMDSAI [Peptide 3, 9-mer SLIAMDSAI derived from FUS1 (SEQ ID NO: 1001)]
Exch II (%): 5.5
